Kindly state koff for each of the entries shown.
target: T1, biotinylated Aβ1-40 peptide (biotinylated (N-biotinylated in Example 7)); assay: SPR, Fab over Aβ1-40 on SA chip
T1 construct: captured on streptavidin (SA) chip; also called Biotinylated Aβ peptide 1-40; Aβ1-40 on SA chip
T1 sequence (peptide, as listed by the source): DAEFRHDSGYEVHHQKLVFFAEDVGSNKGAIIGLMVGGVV
Write down the value, and be sure its unit follows.

So, 9TL variant M27 Fab (Fab, V domains shown, Fab; human IgG2 CH1 and kappa CL) VH: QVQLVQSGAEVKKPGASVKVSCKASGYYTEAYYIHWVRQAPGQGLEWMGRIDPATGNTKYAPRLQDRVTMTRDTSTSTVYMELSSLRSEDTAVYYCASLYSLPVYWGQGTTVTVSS VL: DVVMTQSPLSLPVTLGQPASISCKSSQSLLYSDAKTYLNWFQQRPGQSPRRLIYQISRLDPGVPDRFSGSGSGTDFTLKISRVEAEDVGVYYCLQGTHYPELFGQGTRLEIKR ? Its koff was 0.012 s⁻¹

So, 9TL variant C6 new Fab (Fab, V domains shown, Fab; human IgG2 CH1 and kappa CL) VH: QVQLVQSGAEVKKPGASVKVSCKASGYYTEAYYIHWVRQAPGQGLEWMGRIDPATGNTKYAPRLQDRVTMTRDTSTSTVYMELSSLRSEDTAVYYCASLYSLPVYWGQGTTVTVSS VL: DVVMTQSPLSLPVTLGQPASISCKSSQSLLYSDAKTYLNWFQQRPGQSPRRLIYQISRLDPGVPDRFSGSGSGTDFTLKISRVEAEDVGVYYCLQGTHYPVTFGQGTRLEIKR ? Its koff was 0.00092 s⁻¹

So, 9TL variant M26 Fab (Fab, V domains shown, Fab; human IgG2 CH1 and kappa CL) VH: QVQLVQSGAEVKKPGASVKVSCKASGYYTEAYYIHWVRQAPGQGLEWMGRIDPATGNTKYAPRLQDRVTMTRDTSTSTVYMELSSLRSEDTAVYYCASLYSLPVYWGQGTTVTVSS VL: DVVMTQSPLSLPVTLGQPASISCKSSQSLLYSDAKTYLNWFQQRPGQSPRRLIYQISRLDPGVPDRFSGSGSGTDFTLKISRVEAEDVGVYYCLQGTHYPALFGQGTRLEIKR ? Its koff was 0.009 s⁻¹
